Please respond with reported Kd for every item in the list.
# experimentalTarget: polypeptide HER2/ECD (human, UniProt P04626 23-646)
# methodSummary: SPR (BIAcore), HER2/ECD immobilized, IgG in flow
Numbers only, in nM.

Give me Kd for each of these binders, listed below.
1. H32 (antibody, also called antibody H32) DIQMTQSPSSLSASVGDRVTITCKASQNVGTAVAWYQQKPGKAPKLLIYSASNRYTGVPSRFSGSGSGTDFTLTISSLQPEDFATYYCQQYSSYPLAFGQGTKVEIKRGGGGSIEGRSGGGGSEVQLVESGGGLVQPGGSLRLSCKASGFNIKDYFMYWVRQAPGKGLEWVGWIDPENGNTIYDPKFQGRFTISADTSKNTAYLQMNSLRAEDTAVYYCTRGYYGSRVLAMDYWGQGTLVTVSSASAAA
2. M41 (antibody, also called antibody M41) MAELDIQMTQTTSSLSASLGDRVTISCRTSQDISNYLNWYQQKPNGTIKLLIYYTSGLYSGVPSRFSGSGSGADYSLTISNVEQEDIATYFCQQVNTLPYTFGGGTKLELKSSGGGGSGGGGGGSSRSSFEVQLQQSGAELVKPGASVKMSCKAFGYTFTTYPIEWMKQNHGKSLEWIGNFHPYNDYTNYNEKFKGKAKLTVEKSSTTVYLELSRLTSDDSAVYYCARRHDGYYGAMDYWGQGTSVTVSSAKTTAPSVTSAAAGAPVPYPDPLEPRAA
3. M32 (antibody, also called antibody M32) MAELGIELTQSQKFMSTSVGDRVSITCKASQNVGTAVAWYQQKPGQSPKLLIYSASNRYTGVPDRFTGSGSGTDFTLTISNMQSEDLADYFCQQYSSYPLAFGGGTKLEIKSSGGGGSGGGGGGSSRSSLEVQLVESGAELVRPGALVKLSCKASGFNIKDYFMYWVKQRPEQGLEWVGWIDPENGNTIYDPKFQGKASITADTSSNTAYLQLSSLTSEDTAVYYCTRGYYGSRVLAMDYWGQGTSVTVSSAKTTPPSVTSAAA

Reply:
1. 0.242
2. 0.0519
3. 0.243
